The next entries give measured GI50 for MDA-MB-435.

Cc1nc2ccccc2c(/C=C/c2ccc(F)cc2)c1C(=O)/C=C/c1ccccc1 :: 2.94 µM
O=NN(CC(=O)NNc1ccccc1)CC(=O)NNc1ccccc1 :: > 20.1 µM
Nc1ccccc1SC(CC(=O)c1ccccc1)c1c(Cl)cccc1Cl (stereo not given) :: 2.87 µM
CC(=O)OC1C(C)OC(Oc2c(-c3ccc(O)cc3)oc3cc(O)cc(O)c3c2=O)C(O)C1OC(C)=O (stereo not given) :: 27.2 µM

# assay system MDA-MB-435: give GI50 of COc1cccc(/C=C2\COc3ccc(O)c(O)c3C2=O)c1OC
2.3 µM

###

Test system: SK-MEL-2 melanoma
Assay: NCI tumour cell line growth inhibition, 48 h; in the data active = GI50 below about 0.43 µM; inactive = the rest
Give one outcome, nothing more. List: active, inactive

See these solved cases before continuing.
O=C(Nc1cccc2[nH]c(C(F)(F)F)nc12)c1ccc(Br)cc1F :: active
Cc1nc2ccccc2c(/C=C/c2ccc(F)cc2)c1C(=O)/C=C/c1ccccc1 :: inactive
COc1cccc(C2=C(c3cn(C)c4c(C)cccc34)C(=O)NC2=O)c1 :: inactive
CCCOC(=O)C1C(c2ccc(OC)cc2)NC(c2ccc(OC)cc2)C(C(=O)OCCC)S1(=O)=O (stereo not given) :: inactive

Now, please, on to the next molecule.
Outcome logged for Cc1nc2ccccc2c(/C=C/c2ccc(C(F)(F)F)cc2)c1C(=O)/C=C/c1ccccc1 in this assay:
inactive

###

Measured TGI, listed per entry.
Tested on: HOP-92 NSCLC
Assay: NCI tumour cell line growth inhibition, 48 h

Below: 5 compounds and their reported TGI.
CC(Oc1ccc(Cl)cc1Cl)C(=O)NN1C(=O)CC(=O)NC1=S (configuration not stated) :: > 100 µM
c1ccc([P+](Cc2ccc(C[P+](c3ccccc3)(c3ccccc3)c3ccccc3)s2)(c2ccccc2)c2ccccc2)cc1 :: > 100 µM
CC(C)(CO)CNc1nc(N)nc(Cl)c1C=O :: 77.3 µM
CC(=O)CC(=O)Nc1ccc(OS(N)(=O)=O)cc1 :: > 100 µM
O=C1/C(=C/c2ccccc2)CN(C(=O)/C=C/c2ccccc2)C/C1=C\c1ccccc1 :: 62.2 µM

Note TGI for the compound shown: COC(=O)C(C(=O)C(=O)Nc1nc2ccc(OC)cc2s1)c1cnc2ccccc2n1 (configuration not stated)
> 100 µM

Note TGI for the compound shown: CCOC(=O)c1c(C)n(Cc2ccc(Cl)cc2Cl)c2c1cc(O)c1[nH]c(Cc3ccccc3)nc12
4.16 µM

Note TGI for the compound shown: c1ccc(CSCCC(SCc2ccccc2)SCc2ccccc2)cc1
> 10 µM

Note TGI for the compound shown: CC1=NN(c2ccccc2Cl)C2(C1)C(Cl)C(=O)N2c1nc2ccccc2s1 (configuration not stated)
> 100 µM

Note TGI for the compound shown: C=C1C(=O)OC2/C=C(\CO)C3OC3C3OC3(C)CC(OC(=O)/C(=C/C)COC(C)=O)C12 (configuration not stated)
4.35 µM

Note TGI for the compound shown: Nc1nc(N)c2ncn(Cc3ccccc3CO)c2n1
> 100 µM

Note TGI for the compound shown: COc1cc2c(cc1OCCCN1CCOCC1)N=C[C@@H]1CCCN1C2=O
7.4 µM

Note TGI for the compound shown: C=CCn1c(C)nc2cc(Nc3nc(N4CCCC4)nc4nc[nH]c34)ccc21
> 100 µM

Note TGI for the compound shown: COc1cc(/C=C/C(=O)c2cccc(-n3cc(-c4ccccc4)[nH]c3=O)c2)ccc1O
6.68 µM

Note TGI for the compound shown: C=C(Cl)C(Cl)(CBr)CCCC(C)C (configuration not stated)
31.7 µM

Note TGI for the compound shown: NNC(=S)N/N=C(\c1nc2ccc(Cl)cc2[nH]c1=O)C(O)c1cccc([N+](=O)[O-])c1 (configuration not stated)
> 100 µM

Note TGI for the compound shown: COP(=O)(OC)[C@@](O)(c1ccccc1)[C@@H](O)[C@@H](O)c1ccccc1
> 100 µM

Note TGI for the compound shown: COC(=O)/C=C1\C(=O)Nc2ccc(Br)cc21
4.92 µM

###

Test system: EKVX NSCLC
Experiment: NCI tumour cell line growth inhibition, 48 h
readoutName: TGI

Below: 5 molecules and their reported TGI.
CCc1cn(C2CC(CO)C(CO)S2)c(=O)[nH]c1=O (stereo not given) :: > 100 µM
COc1ccc(/C=N/n2c(Cc3ccccc3)n[nH]c2=O)c(OC)c1 :: 99.4 µM
CC(C)OC(=O)NNc1c(Cl)cc(Cl)cc1Cl :: > 100 µM
CCOC(=O)CCC(NC(=O)c1ccc(Oc2nc3cc(N)cc(N)c3nc2-c2ccccc2)cc1)C(=O)OCC (stereo not given) :: > 100 µM
Cc1nc2ccccc2c(/C=C/c2ccc(C(F)(F)F)cc2)c1C(=O)/C=C/c1ccccc1 :: 2.99 µM

Note TGI for the molecule shown: Cc1ccc(C)c(NC(=O)C(=O)C(C2C(C)CC(=O)C2CC(=O)O)[N+](=O)[O-])c1 (stereo not given)
> 100 µM

Note TGI for the molecule shown: COc1cc(CNc2ccc(C)cc2)cc(OC)c1OC
> 100 µM

Note TGI for the molecule shown: CC(C)CC1CC2C(=O)N(c3ccccc3)C(=O)C2c2[nH]c3ccccc3c21 (stereo not given)
> 100 µM

Note TGI for the molecule shown: N/N=C1\C(=O)N(c2ccc(Cl)c(Cl)c2)C(=O)C1C(=O)Nc1ccc(Cl)c(Cl)c1 (stereo not given)
> 100 µM

Note TGI for the molecule shown: O=c1c2cc([N+](=O)[O-])ccc2[nH]n1Cc1ccccc1Cl
> 100 µM

###

Measured GI50, listed per entry.
Tested on: BT-549 breast
Experiment: NCI tumour cell line growth inhibition, 48 h

Below: 2 molecules and their reported GI50.
CCOC(=O)CCC(NC(=O)c1ccc(Oc2nc3cc(N)cc(N)c3nc2-c2ccccc2)cc1)C(=O)OCC (stereo not drawn) :: 33.7 µM
Cc1c(C(=O)Nc2ccc(Oc3ccnc4cc(OCC(C)(C)O)ccc34)c(F)c2)c(=O)n(-c2ccccc2)n1C :: 4.53 µM

Kindly consider the entry below.
Note GI50 for the molecule shown: CCOC(=O)c1c(C)n(Cc2ccc(Cl)cc2Cl)c2c1cc(O)c1[nH]c(Cc3ccccc3)nc12
2.77 µM

###

System: UACC-257 melanoma
Assay: NCI tumour cell line growth inhibition, 48 h
readoutName: TGI (µM)
All answers are understood in µM, so give the number only.

Below: 4 molecules and their reported TGI.
NC(=O)c1c(NC(=O)c2ccc(C(F)(F)F)cc2Cl)sc2c1CCC(=O)C2 :: 3.46
Cc1ccc(-c2csc3ncnc(Nc4cccc(O)c4)c23)cc1 :: 38.9
COc1ccc(/C=C2\CC3C4CC=C5C[C@@H](N6CCCC6)CC[C@]5(C)C4CC[C@]3(C)[C@H]2O)cc1OC (stereo partly specified) :: 15.4
O=C1/C(=C/c2ccc([N+](=O)[O-])s2)Oc2ccc(Br)cc21 :: 3.96

Note TGI for the molecule shown: C=C1C(=O)OC2/C=C(CO)/C=C\C3OC3(C)CC(OC(=O)/C(C)=C/COC(C)=O)C12 (stereo unspecified)
6.59

Note TGI for the molecule shown: CC12CC(Br)(Br)C(=O)C3C1CCCC32
22.2

Note TGI for the molecule shown: O=C1c2c[n+](Cc3ccccc3)ccc2-c2nc3ccccc3c3ccnc1c23
2.33

Note TGI for the molecule shown: CCOC(=O)c1c(C)n(Cc2ccc(Cl)cc2Cl)c2c1cc(O)c1[nH]c(Cc3ccccc3)nc12
39

Note TGI for the molecule shown: Nc1ccccc1SC(CC(=O)c1ccccc1)c1c(Cl)cccc1Cl (stereo unspecified)
28.6

Note TGI for the molecule shown: O=[N+]([O-])c1cc2c(ccc3ccccc32)o1
0.417

Note TGI for the molecule shown: Cc1nc2ccccc2c(/C=C/c2ccc(C(F)(F)F)cc2)c1C(=O)/C=C/c1ccccc1
3.17

###

Measured TGI, listed per entry.
System: MCF7 breast
Experiment: NCI tumour cell line growth inhibition, 48 h

Below: 3 compounds and their reported TGI.
O=C(N/N=C\c1ccc([N+](=O)[O-])cc1)Nc1ccc2ccccc2c1 :: > 100 µM
CC(C)CC1C(=O)OC(C)(C)OC1=O :: > 100 µM
CC1(C)C2CCC1(C)C(NC(=O)COCCOCC(N)=O)C2 (stereo unspecified) :: > 100 µM

Note TGI for the compound shown: O=C1CC[C@@H]2[C@H]3CCC(=O)c4c3c(c3cccc(O)c3c4O)O[C@@]23C(=O)c2cccc(O)c2C(O)=C13
> 100 µM

Note TGI for the compound shown: C=C1C(=O)OC2/C=C(\CO)C3OC3C3OC3(C)CC(OC(=O)/C(=C/C)COC(C)=O)C12 (stereo unspecified)
20.1 µM

Note TGI for the compound shown: Clc1nc(NC23CC4CC(CC(C4)C2)C3)nc(NC23CC4CC(CC(C4)C2)C3)n1
> 100 µM

Note TGI for the compound shown: CCOC(=O)c1sc2c(c1OC(=O)c1ccco1)c(=O)n(-c1ccccc1)c(=S)n2-c1ccccc1
> 100 µM

Note TGI for the compound shown: CC(C)(C(=O)N(C(=O)N1CCN(c2ccccc2)CC1)S(=O)(=O)c1ccccc1)c1ccc(Cl)cc1
> 100 µM

Note TGI for the compound shown: Cc1nc2ccccc2c(/C=C/c2ccc(F)cc2)c1C(=O)/C=C/c1ccccc1
> 100 µM

Note TGI for the compound shown: CC(=O)O[C@H]1[C@@H](N2CCCCC2)C[C@H]2[C@@H]3CC=C4C[C@@H](N5CCCC5)CC[C@]4(C)[C@H]3CC[C@@]21C
> 100 µM

Where do these numbers come from? They come from PubChem BioAssay (NCI).
